Test system: SW-620
Assay summary: NCI tumour cell line growth inhibition, 48 h
Calls of active or inactive are those of the source. No stated cut-off is given here; in the data, active = GI50 up to about 1.1 µM and inactive = higher.
Measured quantity: GI50

Which value of GI50 has been reported for N#Cc1c2c(c(N)oc1=O)C(c1ccccc1)CC(=O)N2 (stereo not given) in the records? > 100 µM (inactive)

* * *

Test system: MDA-MB-231
Assay summary: NCI tumour cell line growth inhibition, 48 h
Activity calls are given as the source filed them. Rule as the data show it: active = GI50 up to about 1.1 µM and inactive = higher.
Measured quantity: GI50

Record excerpt, results attached:
NNC(=O)c1nnn(N)c1S: 45.4 µM (inactive)
O=C(O)CN(CC(=O)O)Cc1ccn(-c2cccc(-n3ccc(CN(CC(=O)O)CC(=O)O)n3)n2)n1: > 100 µM (inactive)
COC(=O)c1c(O)ccc2c1c1c(n2Cc2cc(OC)cc(OC)c2)C(=O)c2ccccc2C1=O: 7.13 µM (inactive)

What value of GI50 has been reported for the following compound? COc1ccc2c3c1OC1C(OC)(OC)C=C[C@@]4(Br)[C@@H](C2)N(CC2CC2)CC[C@]314 (stereo partly specified) 45.6 µM (inactive)

Given the compound O=C(Nc1ccccc1C(=O)NCc1ccccc1)/C(=C/c1ccccc1)NC(=O)c1ccccc1 , what is its reported GI50? > 100 µM (inactive)

Given the entry N#C/C(=C/NC(=S)NCc1ccccc1)C(N)=O , report its measured GI50. > 100 µM (inactive)

* * *

Collected GI50 values appear next to each entry.
Test system: OVCAR-3
Assay summary: NCI tumour cell line growth inhibition, 48 h
Active and inactive are the calls of the source. Rule as the data show it: active = GI50 up to about 1.1 µM and inactive = higher.

Sample answers from the record:
CCCCCCCCCCCCCCCCNc1ccc2c(c1)OCCOCCOCCOCCO2: 2.71 µM (inactive)
O=C1C=C(Nc2ccccc2C(=O)CC(=O)C(=O)Nc2cccc(C(F)(F)F)c2)c2ccccc2C1=O: 6.35 µM (inactive)

I would be grateful if you could share the reported GI50 for CC1(C)OC(C(N)=O)=C(C(N)=O)O1 . > 100 µM (inactive)

* * *

System: UACC-257
Assay summary: NCI tumour cell line growth inhibition, 48 h
The source made the active and inactive calls. Rule as the data show it: active = GI50 up to about 1.1 µM and inactive = higher.
Measured quantity: GI50

COc1ccc(C(=O)C(C(=O)C(=O)NCCCNC(=O)C(=O)C(C(=O)c2ccc(OC)cc2)c2ccc(OC)cc2)c2ccc(OC)cc2)cc1 (stereo not given): > 100 µM (inactive)
CCOC(=O)C1C[C@H]2CO[C@H](c3ccccc3)N2C1=O (stereo not given in full): > 100 µM (inactive)

Query GI50 on UACC-257 for CCN(CC)CCCNc1nncc2c(C)c3[nH]c4ccccc4c3cc12 1.24 µM (inactive)

# get_value(readout= GI50, system= UACC-257) for O=C(Nn1c(-c2ccccc2)nc2ccccc2c1=O)c1ccc(O)cc1 > 100 µM (inactive)

// fetch UACC-257 GI50 for O=C(N/N=C(COc1ccccc1Cl)\N=C\c1cccnc1)c1ccncc1 > 100 µM (inactive)

* * *

Here the recorded GI50 is given for each entry.
Test system: M14
Assay summary: NCI tumour cell line growth inhibition, 48 h
Activity calls are given as the source filed them. No stated cut-off is given here; in the data, active = GI50 up to about 1.1 µM and inactive = higher.

// known answers, use as guide
CN(C)CCNC(=O)c1ccc(Cl)c2c(Nc3ccc(S(=O)(=O)N=C(N)N)cc3)c3ccccc3nc12: 7.38 µM (inactive)
Cc1cc(S(=O)(=O)N=C2N(Cc3ccccc3)CCN2Cc2ccccc2)c(S)cc1Cl: > 100 µM (inactive)
O=C(c1ccccc1)n1[nH]c(=O)n(-c2ccc(Cl)cc2)c1=O: > 100 µM (inactive)
COc1ccc(-c2nc3ccccc3c(=S)n2OC(C)=O)cc1: 4.98 µM (inactive)
COC(=O)C1=C(C(=O)OC)SC(=C(/N=N/c2ccccc2)c2ccccc2)S1: 45.8 µM (inactive)

Form entry - test system: M14; read-out: GI50; molecule: Cc1c(C)c2c(c(N)c1C#N)C(=O)N(Cc1ccc(S(N)(=O)=O)cc1)C2=O 25.9 µM (inactive)

Recorded GI50 for C=C(c1ccccc1)[C@@]1(O)CCCC[C@H]1NC(c1ccccc1)c1ccccc1 with M14, please? 14 µM (inactive)

Give M14 GI50 for Cc1cc2c(c(S(=O)(=O)c3ccccc3[N+](=O)[O-])c1)NCCC2 69.8 µM (inactive)

Hi! What's the reported GI50 for O=C1CC(=O)c2c(N3CCCC3)sc(N3CCCC3)c21 on M14? > 100 µM (inactive)

Item COc1cc2cc(C(=O)N3CC(CCl)c4c3cc(NC(=O)C(C)(C)c3ccccc3[N+](=O)[O-])c3ccccc43)[nH]c2c(OC)c1OC (stereo unspecified) with M14 - GI50? 1.75 µM (inactive)

Please tell me: GI50 of O=C1OC(c2ccccc2)=N/C1=C\c1cn[nH]n1 , system M14? > 100 µM (inactive)

What value of GI50 on M14 does N#C/C(=C/NC(=S)NCc1ccccc1)C(N)=O have? > 100 µM (inactive)

// fetch M14 GI50 for COc1ccc(/C=N/Nc2nc3ccccc3c(=O)n2-c2ccccc2)cc1 > 100 µM (inactive)

Identify the measured GI50 of O=C(CSc1nc2ccc([N+](=O)[O-])cc2s1)c1ccc2ccccc2c1 for M14. > 100 µM (inactive)

Observed GI50 on M14 for CN(C)CC1(Cc2ccccc2)CCC(Cc2ccccc2)C1=O (stereo unspecified) , please. 10.1 µM (inactive)

Short answer please: GI50, M14, entry CCO/C=C1\SC(=S)N(c2ccc(OCC)cc2)C1=O 97.5 µM (inactive)
